# melting point listing for each entry below

// below: answered molecules
Problem: Fill in melting point for record `O=C1c2sc(OCc3ccc(C(F)(F)F)cc3)nc2CCN1c1ccc(F)cc1F`
Result: > 280 °C

Problem: Using the record for `O=C1c2sc(OCc3cc(F)cc(F)c3)nc2CCN1c1ccc(F)cc1F` , state its measured melting point.
Result: 127 to 130.5 °C

Problem: For the molecule `O=C1c2sc(COc3ccccc3F)nc2CCN1c1ccc(F)cn1` , report melting point.
Result: 151.8 to 153 °C

Problem: Supply reported melting point belonging to this molecule: `O=C1c2sc(COc3ccccc3)nc2CCN1c1ccc(F)cc1F`
Result: 268.9 to 284.1 °C

Problem: Return value of melting point for input `C[C@@H](N1CCc2nc(COc3cccc(F)c3)sc2C1=O)C(C)(C)C` , no commentary.
Result: 87.2 to 87.8 °C

---
Problem: For the molecule `O=C1c2sc(COc3ccccc3F)nc2CCN1CC1CC1` , give its reported melting point.
Result: 85.3 to 87.1 °C

Problem: Hello, please tell me recorded melting point for this one: `COc1ccccc1N1CCc2nc(COc3cccc(F)c3)sc2C1=O`
Result: 61.2 to 64.2 °C

Problem: Indicate its recorded melting point; the molecule in question is `O=C1c2sc(COc3ccc(Cl)cc3)nc2CCN1c1ccc(F)cc1`
Result: 186.9 °C

Problem: Return melting point (reported value) for this molecule: `Cc1cccc(N2CCc3nc(COc4ccccc4)sc3C2=O)n1`
Result: 155.5 °C

###

# Tgt: human mGluR5a receptor (Homo sapiens)
# Construct: host or cells: HEK293A (monoclones H10H and H12H)
# Sequence (P41594 21-1180 isoform P41594-2 limits assumed): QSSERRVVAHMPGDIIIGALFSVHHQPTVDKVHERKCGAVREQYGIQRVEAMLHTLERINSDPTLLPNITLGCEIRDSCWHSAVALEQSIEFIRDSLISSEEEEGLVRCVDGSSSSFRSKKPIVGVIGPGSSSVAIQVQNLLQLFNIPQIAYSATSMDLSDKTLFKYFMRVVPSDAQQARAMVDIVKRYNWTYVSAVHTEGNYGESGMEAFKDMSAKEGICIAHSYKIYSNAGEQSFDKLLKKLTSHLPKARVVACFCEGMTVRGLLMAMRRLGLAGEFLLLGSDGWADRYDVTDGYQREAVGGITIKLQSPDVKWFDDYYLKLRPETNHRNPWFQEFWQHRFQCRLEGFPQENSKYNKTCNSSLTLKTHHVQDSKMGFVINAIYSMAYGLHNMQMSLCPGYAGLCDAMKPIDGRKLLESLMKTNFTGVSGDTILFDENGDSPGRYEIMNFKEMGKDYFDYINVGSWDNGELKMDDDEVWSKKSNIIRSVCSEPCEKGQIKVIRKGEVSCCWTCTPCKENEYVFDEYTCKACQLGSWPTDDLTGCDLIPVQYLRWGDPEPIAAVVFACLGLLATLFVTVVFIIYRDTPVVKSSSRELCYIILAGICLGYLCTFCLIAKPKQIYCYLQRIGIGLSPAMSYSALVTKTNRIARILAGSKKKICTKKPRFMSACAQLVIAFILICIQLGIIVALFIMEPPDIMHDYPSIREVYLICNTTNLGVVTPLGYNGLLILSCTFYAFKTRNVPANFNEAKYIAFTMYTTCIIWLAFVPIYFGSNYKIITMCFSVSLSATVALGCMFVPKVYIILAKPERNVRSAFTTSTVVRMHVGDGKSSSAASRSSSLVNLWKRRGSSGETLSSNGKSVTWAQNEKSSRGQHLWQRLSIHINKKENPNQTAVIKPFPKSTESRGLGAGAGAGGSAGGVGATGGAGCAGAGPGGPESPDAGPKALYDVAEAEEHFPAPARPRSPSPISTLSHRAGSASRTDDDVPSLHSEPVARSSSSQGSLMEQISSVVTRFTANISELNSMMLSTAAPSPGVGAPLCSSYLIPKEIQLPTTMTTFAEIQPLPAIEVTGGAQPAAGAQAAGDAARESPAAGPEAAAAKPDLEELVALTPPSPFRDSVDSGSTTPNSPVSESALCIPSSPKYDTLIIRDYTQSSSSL
# Measurement notes: Functional Assay 2: Ca2+ mobilization, HEK cells with human mGluR5a receptor (H10H cell line)
# Type: cell-based
# Test settings: H10H cell line, glutamate EC20
pEC50: −log10 of the molar value.
Readout label: pEC50

Worked cases, answers included:
Problem: Look up and report measured pEC50 (human mGluR5a receptor (Homo sapiens)) for the following molecule: `CC(C)N1CCc2nc(COc3ccccc3)sc2C1=O`
Result: 5.58

Problem: Tell me its pEC50 on human mGluR5a receptor (Homo sapiens): `Cc1ccc(N2CCc3nc(COc4ccccc4)sc3C2=O)nc1`
Result: 5.92

Problem: Param request: pEC50 | system human mGluR5a receptor (Homo sapiens) | item `O=C1c2sc(COc3cccc(F)c3)nc2CCN1CC1CC1`
Result: 6.65

Problem: Using human mGluR5a receptor (Homo sapiens) as the test system, report measured pEC50 of `O=C1c2sc(OCc3ccccc3)nc2CCN1Cc1ccc(F)cc1` .
Result: 5.65

1: O=C1c2sc(COc3ccccc3F)nc2CCN1c1ccc(F)cc1F
2: Cc1ccnc(N2CCc3nc(COc4ccccc4)sc3C2=O)c1
3: O=C1c2sc(OCc3ccccc3)nc2CCN1Cc1ccccc1F
4: O=C1c2sc(OCc3ccccc3)nc2CCN1c1ccc(F)cc1
Problem: Task for the reader: rank each entry by its pEC50, from the minimum upward. List the labels, following the order given in the request.
Result: 2, 3, 4, 1

1: O=C1c2sc(COc3ccccc3)nc2CCCN1c1ccc(F)cc1
2: Cc1cccc(N2CCc3nc(COc4ccccc4)sc3C2=O)n1
Problem: When the recorded pEC50 values are compared, which is smaller: that of 1 or that of 2 ? In your reply, give the label of the chosen option.
Result: 2
(2: 6.26, 1: 6.67)

###

# Tgt: human mGluR5 receptor (Homo sapiens)
# Construct: expressed in transfected cells; host or cells: HEK-293
# Measurement notes: Functional Assay 1: intracellular Ca2+ mobilization, positive allosteric modulation of glutamate EC20 response
# Type: cell-based
# Test settings: maximum % effect relative to glutamate ECMax
Where a name gives a salt, the structure may show the parent alone.
Readout label: Emax (%)

Solved cases (3 shown):
Problem: Indicate its recorded Emax; the compound in question is O=C1NCCc2nc(OCc3ccccc3F)sc21 [Compound 69, trifluoroacetate]
Result: 15

Problem: Assign Emax to the following record: `O=C1c2sc(OCc3cccc(F)c3)nc2CCN1c1ccc(C(F)(F)F)cc1`
Result: 46

Problem: Check the records and state Emax for `O=C1c2sc(OCc3cccc(F)c3)nc2CCN1c1ccc(F)cc1F`
Result: 82

I: O=C1c2sc(OCc3ccccc3)nc2CCN1c1ccc(F)cc1F
II: N#Cc1ccccc1COc1nc2c(s1)C(=O)N(c1ccc(F)cc1F)CC2
Problem: Lower Emax: I or II ? Write the label of whichever entry you select.
Result: II
(II: 19%, I: 71%)

###

# Tgt: human mGluR5 receptor (Homo sapiens, UniProt P41594)
# Construct: expressed in transfected cells; host or cells: HEK-293
# Sequence (P41594 21-1180 isoform P41594-2 limits assumed): as above
# Measurement notes: Functional Assay 1: intracellular Ca2+ mobilization, positive allosteric modulation of glutamate EC20 response
# Type: cell-based
# Test settings: maximum % effect relative to glutamate ECMax
Structures can show the parent of a compound that is named as a salt.
Readout label: Emax (%)

// solved cases for Emax follow
Problem: Tell us which Emax value is on record for COc1ccccc1COc1nc2c(s1)C(=O)N(c1ccc(F)cc1F)CC2 [Compound 79]
Result: 21

Problem: Please list Emax recorded for the compound O=C1c2sc(OCc3ccc(F)cc3F)nc2CCN1c1ccc(F)cc1F [Compound 23]
Result: 54

Problem: Specify Emax for O=C1NCCc2nc(OCc3ccccc3)sc21 [Compound 65] and stop.
Result: 25

Problem: Input O=C1c2sc(OCc3ccccc3F)nc2CCN1c1ccc(F)cc1F [Compound 18] , output reported Emax.
Result: 76

a: O=C1c2sc(OCc3ccccc3)nc2CCN1Cc1ccccc1F [Compound 16]
b: N#Cc1ccc(COc2nc3c(s2)C(=O)N(c2ccc(F)cc2F)CC3)cc1 [Compound 75]
c: O=C1c2sc(OCc3cccc(F)c3)nc2CCN1c1cccc(F)c1 [Compound 27]
d: O=C1NCCc2nc(OCc3ccc(F)cc3)sc21 [Compound 71, trifluoroacetate]
e: O=C1c2sc(OCc3ccc(F)c(F)c3)nc2CCN1c1ccc(F)cc1F [Compound 74]
Problem: Hey, can you sort those compounds up there by Emax, smallest first? Please respond with the labels ordered as the question requires.
Result: d, b, e, c, a

P: CN1CCc2nc(COc3ccccc3)sc2C1=O [Compound 8]
Q: N#Cc1cc(COc2nc3c(s2)C(=O)NCC3)ccc1F [Compound 66]
Problem: Returns: the label, P or Q , whose recorded Emax is the lower number. Your answer should be the label of the entry you select.
Result: Q

###

# Tgt: human mGluR5a receptor (Homo sapiens)
# Construct: host or cells: HEK293A (monoclones H10H and H12H)
# Measurement notes: Functional Assay 2: Ca2+ mobilization, HEK cells with human mGluR5a receptor (H10H cell line)
# Type: cell-based
# Test settings: H10H cell line, glutamate EC20
Readout label: EC50 (µM)

A: O=C1c2sc(COc3ccc(F)cc3)nc2CCN1CC1CC1 [Compound 43]
B: CN1CCc2nc(OCc3ccccc3)sc2C1=O [Compound 24]
Problem: Lab notebook, comparison: A versus B , higher EC50 goes to which? Answer by quoting the chosen item's label.
Result: B
(B: 3.47 µM, A: 0.759 µM)

###

# Tgt: human mGluR5a receptor (Homo sapiens)
# Construct: host or cells: HEK293A (monoclones H10H and H12H)
# Measurement notes: Functional Assay 2: Ca2+ mobilization, HEK cells with human mGluR5a receptor (H10H cell line)
# Type: cell-based
# Test settings: H10H cell line, glutamate EC20
pEC50: −log10 of the molar value.
Readout label: pEC50

Guide cases for pEC50, answers given:
Problem: Look up pEC50 of `O=C1c2sc(COc3ccc(F)cc3)nc2CCN1c1ccc(F)cc1F` and report it.
Result: 6.65

Problem: Please indicate pEC50 recorded for `O=C1c2sc(COc3ccccc3)nc2CCN1c1ncccc1F`
Result: 5.86

1: O=C1c2sc(OCc3cccc(F)c3)nc2CCN1c1ccc(F)cc1F
2: O=C1c2sc(COc3ccccc3)nc2CCN1c1ccncc1F
Problem: Hi team, can someone confirm which has the larger pEC50: 1 or 2 ? Thanks. To answer, give the label that identifies your chosen option.
Result: 1

###

# Tgt: human mGluR5a receptor (Homo sapiens)
# Construct: host or cells: HEK293A (monoclones H10H and H12H)
# Measurement notes: Functional Assay 2: Ca2+ mobilization, HEK cells with human mGluR5a receptor (H10H cell line)
# Assay type: cell-based
# Test settings: H10H cell line, glutamate EC20
Readout label: EC50 (nM)

// below: answered molecules
Problem: State, in one line, measured EC50 of O=C1c2sc(COc3ccccc3)nc2CCN1C1CC1 [Compound 44]
Result: 4370

Problem: Identify measured EC50 corresponding to O=C1c2sc(COc3ccccc3F)nc2CCN1c1ccc(F)cn1 [Compound 55]
Result: 550

Problem: Answer with the recorded EC50 for the molecule listed here: CN1CCCc2nc(COc3ccccc3)sc2C1=O [Compound 38]
Result: 1070

1: O=C1c2sc(COc3ccccc3)nc2CCN1c1ccccn1 [Compound 45]
2: N#Cc1cccc(COc2nc3c(s2)C(=O)N(c2ccc(F)cc2F)CC3)c1 [Compound 20]
3: O=C1c2sc(COc3ccccc3)nc2CCN1CC1CCOCC1 [Compound 3]
4: Cc1cccnc1N1CCc2nc(COc3ccccc3)sc2C1=O [Compound 52]
Problem: Reorder: EC50, max to min. Form field (ranking): labels in requested order.
Result: 3, 4, 1, 2

1: O=C1c2sc(COc3ccccc3F)nc2CCN1CC1CC1 [Compound 42]
2: O=C1c2sc(COc3ccccc3)nc2CCN1c1ccc(F)cc1F [Compound 29]
3: O=C1c2sc(OCc3ccccc3F)nc2CCN1c1ccc(F)cc1 [Compound 22]
4: O=C1c2sc(OCc3ccccc3)nc2CCN1Cc1ccc(F)cc1F [Compound 13]
Problem: Ascending sort, EC50. Use the labels to give the requested order.
Result: 2, 3, 1, 4
